Entry source: patent US8822503B2

target: human liver GK (Homo sapiens, UniProt P35557); construct: GST (glutathione S-transferase) (N); assay: GK activation test; conditions: test compound concentration needed to activate 50% of maximum activation ability; 4 mM 14C-labeled glucose, 2 mM ATP, room temperature, 20 minutes
Sequence (P35557 1-466 isoform P35557-2): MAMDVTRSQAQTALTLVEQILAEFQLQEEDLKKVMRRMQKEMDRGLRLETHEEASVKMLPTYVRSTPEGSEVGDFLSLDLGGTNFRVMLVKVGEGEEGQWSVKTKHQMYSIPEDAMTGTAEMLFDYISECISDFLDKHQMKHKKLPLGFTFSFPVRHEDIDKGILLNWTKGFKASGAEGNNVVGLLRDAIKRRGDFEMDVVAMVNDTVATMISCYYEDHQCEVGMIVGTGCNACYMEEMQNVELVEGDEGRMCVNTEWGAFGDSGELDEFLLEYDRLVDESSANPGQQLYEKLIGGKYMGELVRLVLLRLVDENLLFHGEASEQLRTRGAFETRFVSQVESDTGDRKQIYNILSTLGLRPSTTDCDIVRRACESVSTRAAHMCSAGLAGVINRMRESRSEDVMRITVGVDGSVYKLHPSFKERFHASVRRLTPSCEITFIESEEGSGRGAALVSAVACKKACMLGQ
pEC50: −log10 of the molar value.
Reported pEC50 is given for each of the following compounds.

Previously resolved entries follow.
| compound | pEC50 |
| --- | --- |
| CCN(CC)CCCNc1ccc(/C(=C\C2CCCC2)c2ccc(C(F)(F)F)c(=O)[nH]2)cc1 | 5.00 to 5.52 |
| CCCc1ccc(/C(=C/[C@H]2CCC(=O)N2)c2ccc(C(C)(C)C)cc2)[nH]c1=O | 6.30 to 8.00 |
| O=C1CC[C@H](/C=C(\c2ccc(SC3CC3)c(Cl)c2)c2ccc(Cl)c(=O)[nH]2)N1 | 6.30 to 8.00 |
| O=C1CC[C@H](CC(c2ccc(C(F)(F)F)c(Cl)c2)c2ccc(C3CC3)c(=O)[nH]2)N1 (single isomer, unassigned) [Example 4-255] | 5.00 to 5.52 |
| O=C1CC[C@H](/C=C(\c2ccc(C(F)(F)F)c(F)c2)c2ccc(C3CC3)c(=O)[nH]2)N1 | 6.30 to 8.00 |
| CCOc1ccc(/C(=C\[C@H]2CCC(=O)C2)c2ccc(CC)c(=O)[nH]2)cc1Cl | 6.30 to 8.00 |

Now examine the next entry.
Report pEC50 for CCOc1ccc(C(C[C@H]2CCC(=O)N2)c2ccc(Cl)c(=O)[nH]2)cc1C(F)(F)F (single isomer, unassigned) please.
5.52 to 6.30

###

List of pEC50 values.
target: human liver GK (Homo sapiens, UniProt P35557); construct: GST (glutathione S-transferase) (N); assay: GK activation test; conditions: test compound concentration needed to activate 50% of maximum activation ability; 4 mM 14C-labeled glucose, 2 mM ATP, room temperature, 20 minutes
pEC50: −log10 of the molar value.

Some solved entries appear below for comparison.
| compound | pEC50 |
| --- | --- |
| O=C1CCC(CC(c2ccc(C(F)F)cc2)c2ccc(C3CC3)c(=O)[nH]2)N1 (single isomer, unassigned) [Example 4-340] | 5.52 to 6.30 |
| CC(C)(C)c1ccc(C(SC2CCCC2)c2ccc(Cl)c(=O)[nH]2)cc1 (stereo not drawn) | 5.52 to 6.30 |
| CCc1ccc(/C(=C\[C@H]2CCN(C(C)=O)C2)c2ccc(Cl)c(=O)[nH]2)cc1 | 5.52 to 6.30 |

Given the compound `Cc1cc(/C(=C\[C@H]2CCC(=O)N2)c2ccc(Cl)c(=O)[nH]2)ccc1OCCCO` , what is its reported pEC50?
5.52 to 6.30

Next compound: CC(C)(C)c1ccc(C(C[C@H]2CCC(=O)N2)c2ccc(Cl)c(=O)[nH]2)cc1 (single isomer, unassigned) [Example 4-70]
5.52 to 6.30

What would you report for `O=c1[nH]c(/C(=C/C2CCCC2)c2ccc(SC3CC3)cc2)ccc1Cl` ?
6.30 to 8.00

What would you report for `CCN(CC)CCNC(=O)c1ccc(/C(=C\C2CCCC2)c2ccc(C3CC3)c(=O)[nH]2)cc1` ?
5.52 to 6.30

###

target: human liver GK (Homo sapiens); construct: GST (glutathione S-transferase) (N); test: GK activation test; conditions: test compound concentration needed to activate 50% of maximum activation ability; 4 mM 14C-labeled glucose, 2 mM ATP, room temperature, 20 minutes
pEC50: −log10 of the molar value.
reported property: pEC50

Here's what some known entries look like.
| compound | target or system | pEC50 |
| --- | --- | --- |
| CCN(CC)CCCOc1ccc(/C(=C\[C@H]2CCC(O)C2)c2ccc(C(F)(F)F)c(=O)[nH]2)cc1Cl (stereo partly shown) [Example 1-86] | human liver GK (Homo sapiens) | 5.52 to 6.30 |
| O=C1CC[C@H](/C=C(\c2ccc(Cl)c(OC(F)(F)F)c2)c2ccc(C3CC3)c(=O)[nH]2)N1 [Example 4-129] | human liver GK (Homo sapiens) | 5.52 to 6.30 |
| Cc1ccc(/C(=C/[C@H]2CCC(=O)C2)c2ccc(S(=O)(=O)CCCO)c(Cl)c2)[nH]c1=O [Example 1-74] | human liver GK (Homo sapiens) | 5.52 to 6.30 |

Request body: readout pEC50, system human liver GK (Homo sapiens), query O=C1CC[C@H](/C=C(\c2ccc(C(F)(F)F)cc2)c2ccc(CCCCO)c(=O)[nH]2)N1 [Example 4-200] . Return the value.
5.52 to 6.30
